Just for reference, PubChem BioAssay (NCI) is where these values come from.

# Tested on: TK-10 renal
# method notes: NCI tumour cell line growth inhibition, 48 h
outcome measure: TGI (µM)
One number for each entry, in µM.

Oc1ccc(Cl)cc1CN1CCN(Cc2cc(Cl)ccc2O)C1 ... 9.69
C=C1C(=O)O[C@@H]2C=C(C)C3=CC(=O)[C@](C)(C[C@H](OC(=O)/C(C)=C\C)[C@@H]12)O3 ... 2.19
CC[N+]1(C)CCC(O)(c2ccc(OC)cc2)C(C(=O)c2ccc(OC)cc2)C1 (stereo unspecified) ... 20.4

Return reported TGI values for all items listed beneath this line.
1. CN(C)C=C1C(Cl)=C(C=O)CC(C=O)=C1Cl
2. COc1cccc(C2c3cc4c(cc3OC(N3CCCC3)C2C)OCO4)c1O (stereo unspecified)
3. Cc1cc(N2CCSCC2)nc(NC2CCCC(Nc3ccnc4cc(Cl)ccc34)C2)n1 (stereo unspecified)
4. CCOC(=O)CC1C(COC(=O)NC)OC(n2cnc3c(NC(=O)Nc4ccccc4)ncnc32)C1O[Si](C)(C)C(C)(C)C (stereo unspecified)

a:
1: 31.8; 2: 40.1; 3: 4.58; 4: 50

q: Determine its reported TGI: C=C1CCC2C(C)(COC(=O)CC)C(OC(=O)CC)CCC2(C)C1C/C=C1/C(=O)OCC1OC(=O)CC (stereo unspecified)
a: 5.59
